src = ChEMBL document CHEMBL5724801

# System: U2OS
# assay-summary: Multiplex assay against U2OS
# Type: toxicity, cell-based
# condition-context: human, 48 h, 1 µM, compound concentration 1 uM
Attribute: Population Hoechst High Intensity Objects (%)
Just the number please, in %, no unit attached.

Some solved cases for reference:
COCCNc1cc(NC(=O)N2CCCc3cc(CN4CCN(C)CC4=O)c(C=O)nc32)ncc1C#N : 0
O=C(Nc1cc(C(F)(F)F)ccc1N1CCCCC1)c1ccncc1 : 0
Nc1nccc(-c2ccn3c(N)nccc23)n1 : 0
COc1c(Nc2ccc(S(C)(=O)=O)nc2C)ncnc1OC1CCN(C(=O)OC(C)C)CC1 : 2
Cc1cc(C)c(NC(=O)C2CC3CCC2C3)c(C)c1 (centres undefined) : 0

Query block: Entry `CN(C)C(=O)Cn1cc(-c2ccc(-c3nnc4ccccn34)cc2)cn1` needs its Population Hoechst High Intensity Objects (%) filled in; supply it.
Result block: 2

Query block: Entry `COc1ccc2[nH]c(I)c(CCNC(C)=O)c2c1` needs its Population Hoechst High Intensity Objects (%) filled in; supply it.
Result block: 1

Query block: Entry CC(C)CNc1nc(N2CCN(CC3CCCOC3)CC2)ncc1C(=O)NCc1ccccc1 (centres undefined) needs its Population Hoechst High Intensity Objects (%) filled in; supply it.
Result block: 0

====

# System: U2OS
# assay-summary: Multiplex assay against U2OS
# Type: toxicity, cell-based
# condition-context: human, 24 h, 10 µM, compound concentration 10 uM
reported-endpoint: Population Hoechst High Intensity Objects (%)
Just the number please, in %, no unit attached.

Some solved cases for reference:
c1cc(OCCCN2CCCCC2)ccc1CN1CCCCC1 : 1
Cc1cc(C)cc(C(=O)NOCCCCCC(=O)NO)c1 : 0
CCOC(=O)c1cnn(-c2ccc(NC(=O)C(Cl)=C(Cl)Cl)cc2)c1C(F)(F)F : 0
Nc1nccc(-c2ccn3c(N)nccc23)n1 : 0
Cc1[nH]nc2ccc(-c3cncc(OCC(N)Cc4c[nH]c5ccccc45)c3)cc12 (stereo unspecified) : 0

API: the following record is the query input.
Query block: Entry `O=C(NCc1cccc(O)c1)Nc1nc(-c2ccncc2)cs1` needs its Population Hoechst High Intensity Objects (%) filled in; supply it.
Result block: 0

====

# System: U2OS
# assay-summary: Multiplex assay against U2OS
# Assay type: toxicity, cell-based
# condition-context: human, 24 h, 1 µM, compound concentration 1 uM
Attribute: Population Normal (%)

Query block: Entry `CCOC(=O)c1cnn(-c2ccc(NC(=O)C(Cl)=C(Cl)Cl)cc2)c1C(F)(F)F` needs its Population Normal (%) filled in; supply it.
Result block: 100%

Query block: Entry `COC[C@@H](CC(C)C)NC1=N/C(=C\c2ccc3ncsc3c2)C(=O)N1C` needs its Population Normal (%) filled in; supply it.
Result block: 100%

Query block: Entry `COC(=O)c1ccc2c(c1)NC(=O)/C2=C(\Nc1ccc(N(C)C(=O)CN2CCN(C)CC2)cc1)c1ccccc1` needs its Population Normal (%) filled in; supply it.
Result block: 100%

Query block: Entry Cc1[nH]nc2ccc(-c3cncc(OCC(N)Cc4c[nH]c5ccccc45)c3)cc12 (stereo unspecified) needs its Population Normal (%) filled in; supply it.
Result block: 100%

Query block: Entry `CC(C)(O)c1cnc(N2C[C@@]3(CCC[C@](C)(Cn4cnc5ccc(C#N)cc54)C3)OC2=O)cn1` needs its Population Normal (%) filled in; supply it.
Result block: 100%

====

# Test system: U2OS
# assay-summary: Multiplex assay against U2OS
# Type: toxicity, cell-based
# condition-context: human, 48 h, 1 µM, compound concentration 1 uM
Attribute: Population Tubulin-Different-Phenotype (%)
Just the number please, in %, no unit attached.

Query block: Retrieve Population Tubulin-Different-Phenotype (%) on U2OS; query COc1ccc2[nH]c(I)c(CCNC(C)=O)c2c1 [IODOMELATONIN]
Result block: 3

Query block: Retrieve Population Tubulin-Different-Phenotype (%) on U2OS; query CCCN1CCC[C@@H]2Cc3n[nH]cc3C[C@H]21.Cl [QUINPIROLE HYDROCHLORIDE]
Result block: 2

Query block: Retrieve Population Tubulin-Different-Phenotype (%) on U2OS; query `O=C(Nc1cc(-c2ccccc2)nn1-c1ccccc1F)c1ccc([N+](=O)[O-])cc1`
Result block: 5

Query block: Retrieve Population Tubulin-Different-Phenotype (%) on U2OS; query COc1c(Nc2ccc(S(C)(=O)=O)nc2C)ncnc1OC1CCN(C(=O)OC(C)C)CC1 [ADP-597]
Result block: 2

====

Attribute: Population Normal (%)
# System: HEK-293T
# assay-summary: Multiplex assay against HEK293T
# Type: toxicity, cell-based
# condition-context: human, 48 h, 1 µM, compound concentration 1 uM
Just the number please, in %, no unit attached.

CCCN1CCC[C@@H]2Cc3n[nH]cc3C[C@H]21.Cl [QUINPIROLE HYDROCHLORIDE] : 98
O=C(Nc1cc(C(F)(F)F)ccc1N1CCCCC1)c1ccncc1 : 100

Query block: Entry COCCNc1cc(NC(=O)N2CCCc3cc(CN4CCN(C)CC4=O)c(C=O)nc32)ncc1C#N [FGF401] needs its Population Normal (%) filled in; supply it.
Result block: 100

Query block: Entry CN1C[C@H](C(=O)N[C@]2(C)O[C@@]3(O)[C@@H]4CCCN4C(=O)[C@H](Cc4ccccc4)N3C2=O)C[C@@H]2c3cccc4[nH]cc(c34)C[C@H]21.CS(=O)(=O)O [DIHYDROERGOTAMINE MESYLATE] needs its Population Normal (%) filled in; supply it.
Result block: 97

Query block: Entry O=C1CSC(=O)N1C(CCc1ccncc1)COc1ccc(-c2cccc([N+](=O)[O-])c2)cc1 (centres undefined) needs its Population Normal (%) filled in; supply it.
Result block: 100

Query block: Entry `COc1cccc2c1c(NS(=O)(=O)c1ccc(Cl)s1)nn2Cc1cccc(CNC(=O)C(C)(C)O)c1` needs its Population Normal (%) filled in; supply it.
Result block: 97

Query block: Entry CN(C)CCCn1cc(C2=C(c3c[nH]c4ccccc34)C(=O)NC2=O)c2ccccc21 [GF-109203] needs its Population Normal (%) filled in; supply it.
Result block: 100

Query block: Entry CC(C)CNc1nc(N2CCN(CC3CCCOC3)CC2)ncc1C(=O)NCc1ccccc1 (centres undefined) needs its Population Normal (%) filled in; supply it.
Result block: 100

Query block: Entry CC(=O)NCC(=O)N1[C@@H]2CC[C@H]1c1ccc(Nc3ncc(C(F)(F)F)c(NC4CCC4)n3)cc12 [PF-03814735] needs its Population Normal (%) filled in; supply it.
Result block: 100

====

# Test system: HEK-293T
# assay-summary: Multiplex assay against HEK293T
# Assay type: toxicity, cell-based
# condition-context: human, 12 h, 10 µM, compound concentration 10 uM
reported-endpoint: Population Membrane Permeable-Phenotype (%)
Just the number please, in %, no unit attached.

Some solved cases for reference:
Cc1cc(Nc2ncc(Cl)c(Nc3ccccc3S(=O)(=O)C(C)C)n2)c(OC(C)C)cc1C1CCNCC1 : 0
CN1C[C@H](C(=O)N[C@]2(C)O[C@@]3(O)[C@@H]4CCCN4C(=O)[C@H](Cc4ccccc4)N3C2=O)C[C@@H]2c3cccc4[nH]cc(c34)C[C@H]21.CS(=O)(=O)O [DIHYDROERGOTAMINE MESYLATE] : 0

Query block: Entry `CC(=O)Nc1cccc2c1c(Sc1ccc(Cl)cc1)c(C)n2CC(=O)O` needs its Population Membrane Permeable-Phenotype (%) filled in; supply it.
Result block: 0

====

# Tested on: HEK-293T
# assay-summary: Multiplex assay against HEK293T
# Assay type: toxicity, cell-based
# condition-context: human, 48 h, 10 µM, compound concentration 10 uM
Attribute: Population Hoechst High Intensity Objects (%)
Just the number please, in %, no unit attached.

CC(=O)NCC(=O)N1[C@@H]2CC[C@H]1c1ccc(Nc3ncc(C(F)(F)F)c(NC4CCC4)n3)cc12 : 0
C=CC(=O)Nc1cc(Nc2nccc(-n3cc(CN(C)C)c(-c4ccccc4)n3)n2)c(OC)cc1N1CCOCC1 : 0
Cc1c(Cc2ccc3ccccc3n2)c2cc(F)ccc2n1CC(=O)O : 4
CN(C)Cc1cccc(NC(=C2C(=O)Nc3cc(C(=O)N(C)C)ccc32)c2ccccc2)c1 : 0
Cc1cc(C)c(NC(=O)C2CC3CCC2C3)c(C)c1 (centres undefined) : 0

Query block: Entry `CC(=O)O[C@H]1C(=O)[C@@]2(C)[C@H]([C@H](OC(=O)c3ccccc3)[C@]3(O)C[C@H](OC(=O)[C@H](O)[C@@H](NC(=O)c4ccccc4)c4ccccc4)C(C)=C1C3(C)C)[C@]1(OC(C)=O)CO[C@@H]1C[C@@H]2O` needs its Population Hoechst High Intensity Objects (%) filled in; supply it.
Result block: 11

Query block: Entry `Cc1cc(Nc2ncc(Cl)c(Nc3ccccc3S(=O)(=O)C(C)C)n2)c(OC(C)C)cc1C1CCNCC1` needs its Population Hoechst High Intensity Objects (%) filled in; supply it.
Result block: 0

Query block: Entry `COc1cccc2c1c(NS(=O)(=O)c1ccc(Cl)s1)nn2Cc1cccc(CNC(=O)C(C)(C)O)c1` needs its Population Hoechst High Intensity Objects (%) filled in; supply it.
Result block: 4

Query block: Entry `CN1CCN(c2cc(-c3ccccc3)nc(N)n2)CC1` needs its Population Hoechst High Intensity Objects (%) filled in; supply it.
Result block: 3
